Tgt: endogenous cellular BACE2 in the Ins1e rat cell line (Rattus norvegicus (Rat))
Assay overview: Assay for BACE inhibition by measuring cellular TMEM27 cleavage (ELISA of shed hTMEM27 from INS-TMEM27 cells)
Test settings: assay a): cellular TMEM27 cleavage, INS-TMEM27 cells (superscript a)
Measurement label: IC50 (µM)

Example compounds with recorded IC50:
compound="CN1C(=O)C(C)(C)[C@@](C)(c2cc(NC(=O)C(O)C(F)(F)F)ccc2F)N=C1N (some centres unmarked)" measurement_label=IC50 reported_result=0.009
compound=CN1C(=O)C(C)(C)[C@@](C)(c2cc(NC[C@@H]3C[C@H]3c3ccccc3)ccc2F)N=C1N measurement_label=IC50 reported_result=0.242

1: CN1C(=O)C(C)(C)[C@@](C)(c2cc(NCCC(F)(F)F)ccc2F)N=C1N
2: CN1C(=O)C(C)(C)[C@@](C)(c2cc(Nc3ccccc3)ccc2F)N=C1N
From the items above, decide which of 1 and 2 has the lower IC50 reading. Lab log: write the label of the selected item as the result.
2
(2: 0.042 µM, 1: 0.076 µM)

a: CC1OCCC1Nc1ccc(F)c([C@@]2(C)N=C(N)N(C)C(=O)C2(C)C)c1 (some centres unmarked)
b: CC1CCC(Nc2ccc(F)c([C@@]3(C)N=C(N)N(C)C(=O)C3(C)C)c2)C1 (some centres unmarked)
From the items above, decide which of a and b has the lower IC50 reading. Lab log: write the label of the selected item as the result.
a
(a: 0.008 µM, b: 0.039 µM)

P: Cc1cn[nH]c1CNc1ccc(F)c([C@@]2(C)N=C(N)N(C)C(=O)C2(C)C)c1
Q: COc1cc(F)ccc1Nc1ccc(F)c([C@@]2(C)N=C(N)N(C)C(=O)C2(C)C)c1
P or Q : whose IC50 is greater? Lab log: write the label of the selected item as the result.
P
(P: 0.391 µM, Q: 0.135 µM)

###

Tgt: endogenous cellular BACE2 in the Ins1e rat cell line (Rattus norvegicus (Rat), UniProt Q6IE75)
Sequence (Q6IE75 63-514): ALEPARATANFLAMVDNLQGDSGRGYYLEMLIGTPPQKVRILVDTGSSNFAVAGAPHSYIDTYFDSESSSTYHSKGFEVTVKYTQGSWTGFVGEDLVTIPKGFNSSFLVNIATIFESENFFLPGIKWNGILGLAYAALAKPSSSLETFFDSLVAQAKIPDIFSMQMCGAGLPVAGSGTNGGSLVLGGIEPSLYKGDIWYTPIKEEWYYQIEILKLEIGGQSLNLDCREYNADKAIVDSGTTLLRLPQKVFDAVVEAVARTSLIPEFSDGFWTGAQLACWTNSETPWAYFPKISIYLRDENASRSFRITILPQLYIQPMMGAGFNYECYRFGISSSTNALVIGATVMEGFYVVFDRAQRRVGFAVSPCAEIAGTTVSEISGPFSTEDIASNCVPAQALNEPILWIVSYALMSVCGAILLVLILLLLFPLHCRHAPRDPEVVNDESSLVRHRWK
Assay overview: Assay for BACE inhibition by measuring cellular TMEM27 cleavage (ELISA of shed hTMEM27 from INS-TMEM27 cells)
Assay type: cell-based
Test settings: assay a): cellular TMEM27 cleavage, INS-TMEM27 cells (superscript a)
Protocol: a) Assay for BACE Inhibition by Measuring Cellular TMEM27 Cleavage: […] An ELISA assay (using a pair of mouse anti-human-TMEM27 antibodies, raised against the extracellular domain of TMEM27) is used for detection of TMEM27 in the culture medium. An EC50 for BACE2 inhibition is calculated using the ELISA readout for each inhibitor concentration with standard curve-fitting software such as XLFit for the Excel spreadsheet program.
Measurement label: IC50 (µM)

molecule=CN1C(=O)C(C)(C)[C@@](C)(c2cc(NC(=O)C3(C)CC3)ccc2F)N=C1N reported_result=0.023
molecule=COc1ccccc1Nc1ccc(F)c([C@@]2(C)N=C(N)N(C)C(=O)C2(C)C)c1 reported_result=0.015
molecule="CN1C(=O)C(C)(C)[C@@](C)(c2cc(NC3[C@H]4[C@@H](C[C@H]3O)[C@@H]4C(=O)O)ccc2F)N=C1N (some centres unmarked)" reported_result=0.226

A: CN1C(=O)C(C)(C)[C@@](C)(c2cc(N[C@H]3CCC[C@@H]3O)ccc2F)N=C1N
B: CN1C(=O)C[C@]2(CCc3ccc(NC(=O)C4(C(F)(F)F)CC4)cc32)N=C1N
C: CN1C(=O)C(C)(C)[C@@](C)(c2cc(Nc3ccccc3C#N)ccc2F)N=C1N
Output the entries ranked by IC50 from maximum down to minimum. Give the labels in the order specified.
A, B, C

###

Tgt: endogenous cellular BACE2 in the Ins1e rat cell line (Rattus norvegicus (Rat))
Assay overview: Assay for BACE inhibition by measuring cellular TMEM27 cleavage (ELISA of shed hTMEM27 from INS-TMEM27 cells)
Test settings: assay a): cellular TMEM27 cleavage, INS-TMEM27 cells (superscript a)
pIC50: −log10 of the molar value.
Measurement label: pIC50

compound=CN1C(=O)C(C)(C)[C@@](C)(c2cc(Nc3ccccc3OC(F)F)ccc2F)N=C1N reported_result=6.87
compound=CN1C(=O)C(C)(C)[C@@](C)(c2cc(NC(=O)[C@@H]3CC3(F)F)ccc2F)N=C1N reported_result=8.70
compound=Cc1ncsc1CNc1ccc(F)c([C@@]2(C)N=C(N)N(C)C(=O)C2(C)C)c1 reported_result=6.81

1: COc1cc(F)c(F)cc1Nc1ccc(F)c([C@@]2(C)N=C(N)N(C)C(=O)C2(C)C)c1
2: CN1C(=O)C(C)(C)[C@@](C)(c2cc(NC(=O)C(O)(C(F)(F)F)C(F)(F)F)ccc2F)N=C1N
3: CCOC(=O)N1CCC(Nc2ccc(F)c([C@@]3(C)N=C(N)N(C)C(=O)C3(C)C)c2)C1 (some centres unmarked)
4: CCC[C@@]1(c2cccc(NC(=O)C3(C(F)(F)F)CC3)c2)CC(=O)N(C)C(N)=N1
5: CN1C(=O)C(C)(C)[C@@](C)(c2cc(NC3COc4ccccc43)ccc2F)N=C1N (some centres unmarked)
Output the entries ranked by pIC50 from maximum down to minimum. Give the labels in the order specified.
3, 5, 4, 1, 2
(3: 8.15, 5: 7.14, 4: 6.92, 1: 6.66, 2: 6.30)

###

Tgt: endogenous cellular BACE2 in the Ins1e rat cell line (Rattus norvegicus (Rat))
Assay overview: Assay for BACE inhibition by measuring cellular TMEM27 cleavage (ELISA of shed hTMEM27 from INS-TMEM27 cells)
Test settings: assay a): cellular TMEM27 cleavage, INS-TMEM27 cells (superscript a)
Measurement label: IC50 (nM)

Example compounds with recorded IC50:
compound="CN1C(=O)C(C)(C)[C@@](C)(c2cc(Nc3cccc4c3OC(C)(C)C4)ccc2F)N=C1N [Example 156]" measurement_label=IC50 reported_result=1210
compound="CN1C(=O)C(C)(C)[C@@](C)(c2cc(Nc3cccnc3)ccc2F)N=C1N [Example 138]" measurement_label=IC50 reported_result=500
compound="COC(=O)CC1CCC(Nc2ccc(F)c([C@@]3(C)N=C(N)N(C)C(=O)C3(C)C)c2)C1 (stereo partly shown) [Example 95]" measurement_label=IC50 reported_result=406
compound="CC(Nc1ccc(F)c([C@@]2(C)N=C(N)N(C)C(=O)C2(C)C)c1)c1nc2ccccc2s1 (stereo partly shown) [Example 127]" measurement_label=IC50 reported_result=73
compound="CN1C(=O)C(C)(C)[C@@](C)(c2cc(NCC3(c4ccccc4)CC3)ccc2F)N=C1N [Example 53]" measurement_label=IC50 reported_result=153

a: COc1ccc(Nc2ccc(F)c([C@@]3(C)N=C(N)N(C)C(=O)C3(C)C)c2)cc1 [Example 72]
b: CN1C(=O)C(C)(C)[C@@](C)(c2cc(Nc3ccn(C)n3)ccc2F)N=C1N [Example 99]
c: CN1C(=O)C(C)(C)[C@@](C)(c2cc(Nc3cccc(F)c3)ccc2F)N=C1N [Example 88]
Output the entries ranked by IC50 from maximum down to minimum. Give the labels in the order specified.
c, a, b
(c: 795 nM, a: 201 nM, b: 6 nM)

I: CN1C(=O)C(C)(C)[C@@](C)(c2cc(Nc3ccccc3OC(F)(F)F)ccc2F)N=C1N [Example 74]
II: CN1C(=O)C(C)(C)[C@@](C)(c2cc(NC3CCCC3Cl)ccc2F)N=C1N (stereo partly shown) [Example 30]
I or II : whose IC50 is greater? Lab log: write the label of the selected item as the result.
I
(I: 76 nM, II: 33 nM)

###

Tgt: endogenous cellular BACE2 in the Ins1e rat cell line (Rattus norvegicus (Rat), UniProt Q6IE75)
Assay overview: Assay for BACE inhibition by measuring cellular TMEM27 cleavage (ELISA of shed hTMEM27 from INS-TMEM27 cells)
Test settings: assay a): cellular TMEM27 cleavage, INS-TMEM27 cells (superscript a)
Measurement label: IC50 (nM)

Example compounds with recorded IC50:
compound=Cc1ccccc1Nc1ccc(F)c([C@@]2(C)N=C(N)N(C)C(=O)C2(C)C)c1 measurement_label=IC50 unit=nM reported_result=115
compound=CN1C(=O)C(C)(C)[C@@](C)(c2cc(Nc3cc(F)ccc3F)ccc2F)N=C1N measurement_label=IC50 unit=nM reported_result=14
compound="CN1C(=O)C(C)(C)[C@@](C)(c2cc(NC3CCCC3C#N)ccc2F)N=C1N (some centres unmarked)" measurement_label=IC50 unit=nM reported_result=1
compound=COC(=O)c1ccc(Nc2ccc(F)c([C@@]3(C)N=C(N)N(C)C(=O)C3(C)C)c2)c(OC)c1 measurement_label=IC50 unit=nM reported_result=46
compound=CN1C(=O)C(C)(C)[C@@](C)(c2cc(NC(=O)[C@H]3CC3(F)F)ccc2F)N=C1N measurement_label=IC50 unit=nM reported_result=25
compound=COc1cccc(Nc2ccc(F)c([C@@]3(C)N=C(N)N(C)C(=O)C3(C)C)c2)c1 measurement_label=IC50 unit=nM reported_result=44

1: CN1C(=O)C(C)(C)[C@@](C)(c2cc(NC(=O)C(C(F)(F)F)C(F)(F)F)ccc2F)N=C1N
2: CN1C(=O)C(C)(C)[C@@](C)(c2cc(NC3CCN(Cc4ccccc4)C3)ccc2F)N=C1N (some centres unmarked)
From the items above, decide which of 1 and 2 has the lower IC50 reading. Lab log: write the label of the selected item as the result.
2
(2: 32 nM, 1: 1010 nM)
